# procedure text: Toxicity liver stage against HepG2, at 10uM
# Type: cell-based
# Design: test concentration 10 uM, cell line HepG2-A16-CD81EGFP
# assay conditions: human, HepG2-A16-CD81EGFP cells; read-out: INHIBITION
assay readout: cytotoxicity at 10 µM (%)

| molecule | assay readout | test value |
| --- | --- | --- |
| Nc1cc2c(nn1)CCN(C(=O)c1ccc(-c3ccco3)[nH]c1=O)C2 | cytotoxicity at 10 µM | -3.73 |
| CC(C)(C)n1cc(C#N)cc1NC(=O)CCNC(=O)c1ccco1 | cytotoxicity at 10 µM | 1.95 |
| COC(C)Cc1nc(-c2cnn3c(C)cc(C)nc23)no1 (configuration not stated) | cytotoxicity at 10 µM | -8.11 |
| COCCC(=O)N1CCC(c2cncc(Oc3cccnc3)n2)CC1 | cytotoxicity at 10 µM | -9.55 |
| COc1ccc(OC)c(C(C(=O)O)N2CCSCC2)c1 (configuration not stated) | cytotoxicity at 10 µM | -1.02 |
| c1ccc(-c2nccc(CNCC3CCCN3c3cccnn3)n2)cc1 (configuration not stated) | cytotoxicity at 10 µM | -1.17 |
| CO[C@H]1CN(Cc2ccccc2F)C[C@@]12CCCO2 | cytotoxicity at 10 µM | -8.19 |
| CCc1ncc2c(n1)CN(CC(=O)Nc1ccncc1)CC2 | cytotoxicity at 10 µM | 0.0264 |
| CNC(=O)Cc1noc(-c2cc3c(s2)CCCC3)n1 | cytotoxicity at 10 µM | 0.403 |
| CCc1ncc(C(=O)N(C)C(C)c2ccc3c(c2)OCCO3)cn1 (configuration not stated) | cytotoxicity at 10 µM | -2.96 |
| COc1ccc(C)cc1CN(CC(N)=O)C(C)C | cytotoxicity at 10 µM | -0.846 |
| CN(C)Cc1ccc(CNC(=O)NCC2(C)CCCS2)cc1 (configuration not stated) | cytotoxicity at 10 µM | -12.9 |
